Taken from patent US20230295310A1.

Below, each entry is listed with its recorded Binding (FOI).
# Study System: T1, human CD3 expressed on cells (Jurkat cells; human primary T cells) (human, UniProt P07766 23-207; P04234 22-171; P09693 23-182)
# T1 construct: whole, on cells
# T1 sequence (P07766 23-207, chain 1 of 3): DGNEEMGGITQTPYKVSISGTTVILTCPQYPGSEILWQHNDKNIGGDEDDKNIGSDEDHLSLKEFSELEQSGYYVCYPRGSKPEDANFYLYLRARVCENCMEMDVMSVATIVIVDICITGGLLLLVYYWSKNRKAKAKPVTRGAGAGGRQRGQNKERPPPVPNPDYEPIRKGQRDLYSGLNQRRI
# T1 sequence (P04234 22-171, chain 2 of 3): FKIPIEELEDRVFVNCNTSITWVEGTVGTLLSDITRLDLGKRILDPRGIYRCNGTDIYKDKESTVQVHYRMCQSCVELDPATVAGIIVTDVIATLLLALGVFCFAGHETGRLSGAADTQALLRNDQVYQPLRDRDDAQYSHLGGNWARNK
# T1 sequence (P09693 23-182, chain 3 of 3): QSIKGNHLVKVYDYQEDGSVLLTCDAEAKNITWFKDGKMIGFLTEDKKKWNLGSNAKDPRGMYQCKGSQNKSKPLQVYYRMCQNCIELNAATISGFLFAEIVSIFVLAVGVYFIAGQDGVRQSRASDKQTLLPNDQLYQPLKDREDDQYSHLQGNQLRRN
# Experiment: flow cytometry, 25 nM, Jurkat cells
Return type: number; implicit unit FOI.

binder="mAb 258 (antibody, V domains shown, VH/VL only) VH: EVQLLESGGGLVQPGGSLRLSCAASGFTFSNYAMNWVRQAPGKGLEWVSVISNSGGTRLYVDSVKGRFTISRDNSKNTLYLQMSSLRAADTAVYYCAKDAAAALYYYYFYYMDVWGKGTTVTVSS VL: EIVLTQSPDFQSVTPKEKVTITCRASQSIGSSLHWYQQKPDQSPKLLIKYASQSFSGVPSRFSGSGSGTDFTLTINSLEAEDAATYYCHQSSSLPYTFGQGTKLEIK" property_name="Binding (FOI)" display_unit=FOI numeric_value=147

Here is another binder to look at.
Problem: Entry mAb 225 (antibody, V domains shown, VH/VL only) VH: QEQLVESGGGVVQPGGSLRLSCAASGFKFSGYGMHWVRQAPGKGLEWVAIIWYNGRKTYYAESVKGRFTISRDNSKNTLSLQMNRLRVEDTAVYYCTAGQGYNWFDPWGQGTLVTVSS VL: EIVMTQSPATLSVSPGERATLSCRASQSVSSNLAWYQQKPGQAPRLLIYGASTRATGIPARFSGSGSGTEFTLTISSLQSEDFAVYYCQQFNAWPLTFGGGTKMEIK : reported Binding (FOI) = ?
Result: 210
